Data origin: patent US9522888B2

TESTED_TARGET: hS1P1/CHO cells (Homo sapiens (Human), UniProt P21453)
Sequence (P21453 whole entry): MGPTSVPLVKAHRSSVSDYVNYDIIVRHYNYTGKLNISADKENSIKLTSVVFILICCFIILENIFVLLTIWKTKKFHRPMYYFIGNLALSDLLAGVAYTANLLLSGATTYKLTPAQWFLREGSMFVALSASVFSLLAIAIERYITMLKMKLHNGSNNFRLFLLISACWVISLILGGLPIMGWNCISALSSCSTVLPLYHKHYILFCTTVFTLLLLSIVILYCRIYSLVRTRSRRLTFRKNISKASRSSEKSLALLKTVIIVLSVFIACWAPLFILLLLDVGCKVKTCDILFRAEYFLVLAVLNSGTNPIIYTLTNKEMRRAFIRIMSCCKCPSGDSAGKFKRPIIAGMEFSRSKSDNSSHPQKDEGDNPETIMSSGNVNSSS
METHOD_SUMMARY: hS1P1 ERK phosphorylation (S1P1 pERK)
MEASUREMENT_CONDITIONS: phosphate examples
VALUE_KIND: EC50

Worked examples follow.
COc1cc(CC[C@H]2CCc3cc([C@@H]4CC[C@@](N)(COP(=O)(O)O)C4)ccc3C2)ccc1F (single isomer, unassigned); < 10 nM
CCCCCSC[C@@H]1CCc2cc([C@H]3CC[C@](N)(COP(=O)(O)O)C3)ccc2C1; < 10 nM
COCCC/C=C/[C@H]1CCc2cc([C@H]3CC[C@](N)(COP(=O)(O)O)C3)ccc2C1; < 10 nM

Qu. Give the reported value of EC50 for this record: "CCCCOCCO[C@H]1CCc2cc([C@@H]3CC[C@@](N)(COP(=O)(O)O)C3)ccc2C1"
Ans. < 10 nM

Qu. Give the reported value of EC50 for this record: "COc1ccc(C[C@H]2CCc3cc([C@H]4CC[C@](N)(COP(=O)(O)O)C4)ccc3C2)cc1"
Ans. < 10 nM

Qu. Give the reported value of EC50 for this record: "COc1ccc(OC[C@@H]2CCc3cc([C@H]4CC[C@](N)(COP(=O)(O)O)C4)ccc3C2)cc1"
Ans. 10 to 100 nM

Qu. Give the reported value of EC50 for this record: "COc1cccc(COC[C@H]2CCc3cc([C@H]4CC[C@](N)(COP(=O)(O)O)C4)ccc3C2)c1"
Ans. < 10 nM

Qu. Give the reported value of EC50 for this record: "COc1cc(OC[C@@H]2CCc3cc([C@H]4CC[C@](N)(COP(=O)(O)O)C4)ccc3C2)ccc1F"
Ans. 10 to 100 nM

Qu. Give the reported value of EC50 for this record: "CCOc1cccc(C[C@H]2CCc3cc([C@H]4CC[C@](N)(COP(=O)(O)O)C4)ccc3C2)c1"
Ans. < 10 nM

Qu. Give the reported value of EC50 for this record: "CN(C)CCCCC[C@@H]1CCc2cc([C@H]3CC[C@](N)(COP(=O)(O)O)C3)ccc2C1"
Ans. 10 to 100 nM

Qu. Give the reported value of EC50 for this record: "C=CCCOC[C@@H]1CCc2cc([C@H]3CC[C@](N)(COP(=O)(O)O)C3)ccc2C1"
Ans. < 10 nM

Qu. Give the reported value of EC50 for this record: "CCC/C=C\CO[C@@H]1CCc2cc([C@H]3CC[C@](N)(COP(=O)(O)O)C3)ccc2C1"
Ans. < 10 nM
